Value source: PubChem BioAssay AID652002

# pEC50 per record follows
Assay: compound enhancement of TRAIL-induced cell killing – NB7 cells plus caspase-8, luminescence, panel, dose response (AID 652002)
Conditions: NB7 neuroblastoma +caspase-8, no TRAIL, compound-alone cytotoxicity counter-screen, luminescence viability; NB7+Caspase-8; run 1; single replicate panel EC50
pEC50: −log10 of the molar value.

[[record]]
compound = "O=C1CCCCC1Sc1nnc(-c2ccc3c(c2)OCO3)o1 (stereo unspecified)"
observed = "< 4.90"

[[record]]
compound = "CN(C)c1ccc(N/C=C/C(=O)c2ccco2)cc1"
observed = 5.12

[[record]]
compound = "Cc1ccc2c(c1)-c1nc3ccccc3cc1C2=NC1CCCCC1"
observed = "< 4.90"

[[record]]
compound = "C=Cc1ccc(Cn2c(C)c(C(=O)NCc3cccc(C(F)(F)F)c3)sc2=O)cc1"
observed = "< 4.90"


response.value for CCOC(=O)[C@]12Cc3cc4ccccc4cc3[C@H]1N(Cc1ccccc1)C(=O)c1ccccc12 (field: pEC50) = < 4.90

response.value for O=C(Nc1ccc(Br)cc1F)c1ccc2c(c1)OCCO2 (field: pEC50) = < 4.90

###

# EC50 per record follows
Biological target: Tumor necrosis factor receptor superfamily member 10B (Homo sapiens) (UniProt O14763)
Sequence (O14763 whole entry, looked up): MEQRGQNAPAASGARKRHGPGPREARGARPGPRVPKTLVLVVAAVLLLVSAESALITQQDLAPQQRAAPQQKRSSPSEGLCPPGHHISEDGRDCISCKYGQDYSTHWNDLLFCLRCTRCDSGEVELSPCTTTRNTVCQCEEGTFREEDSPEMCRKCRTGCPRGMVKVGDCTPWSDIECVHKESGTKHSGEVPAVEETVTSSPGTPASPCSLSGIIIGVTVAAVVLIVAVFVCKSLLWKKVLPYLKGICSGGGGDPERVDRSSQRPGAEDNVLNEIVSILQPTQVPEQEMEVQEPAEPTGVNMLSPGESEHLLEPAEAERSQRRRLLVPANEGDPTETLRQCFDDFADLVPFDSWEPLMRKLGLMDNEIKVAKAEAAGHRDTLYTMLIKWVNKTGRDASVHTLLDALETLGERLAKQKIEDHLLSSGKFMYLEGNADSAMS
Assay: compound enhancement of TRAIL-induced cell killing – NB7 cells plus caspase-8, luminescence, panel, dose response (AID 652002)
Conditions: NB7 neuroblastoma +caspase-8, TRAIL sensitization, luminescence viability; NB7+Caspase-8; with TRAIL, mean of runs
Calls of active or inactive are those of the source. How the calls were made is not given here.

These solved cases illustrate the format of a correct answer.
[[record]]
molecule = "COc1ccc(NS(=O)(=O)c2cccc(C(=O)N/N=C/c3c(F)c(F)c(F)c(F)c3F)c2)cc1"
tested_target = "Tumor necrosis factor receptor superfamily member 10B (Homo sapiens) (UniProt O14763)"
observed = "> 12.5 µM (inactive)"

[[record]]
molecule = "CCOC(=O)[C@]12Cc3cc4ccccc4cc3[C@H]1N(Cc1ccccc1)C(=O)c1ccccc12"
tested_target = "Tumor necrosis factor receptor superfamily member 10B (Homo sapiens) (UniProt O14763)"
observed = "> 12.5 µM (inactive)"

[[record]]
molecule = "Cc1ccnc(NC(=O)Nc2ccc3c(c2)OCO3)c1"
tested_target = "Tumor necrosis factor receptor superfamily member 10B (Homo sapiens) (UniProt O14763)"
observed = "> 12.5 µM (inactive)"


Consider now this further molecule.
response.value for CCCCC1CCC(C(=O)N(CCC(C)C)c2c(N)n(CCCC)c(=O)[nH]c2=O)CC1 (stereo not given) (field: EC50) = > 12.5 µM (inactive)

###

# EC50 per record follows
Target: NB7+Caspase-8
Experiment: compound enhancement of TRAIL-induced cell killing – NB7 cells plus caspase-8, luminescence, panel, dose response (AID 652002)
Settings: NB7 neuroblastoma +caspase-8, TRAIL sensitization, luminescence viability, with TRAIL, run 2, single replicate panel EC50

These solved cases illustrate the format of a correct answer.
[[record]]
molecule = "O=C(Nc1cnc2ccccn2c1=O)c1ccc(Cl)cc1Cl"
assay_readout = "EC50"
observed = "> 12.5 µM"

[[record]]
molecule = "CCOc1ccc(/C=C/C(=O)Nc2cccc(C(C)=O)c2)cc1"
assay_readout = "EC50"
observed = "> 12.5 µM"

[[record]]
molecule = "CCOc1ccc(NC(=O)c2ccco2)cc1"
assay_readout = "EC50"
observed = "6.9 µM"

[[record]]
molecule = "CC(C)CCn1cnc2c([nH]c3cccc(Cl)c32)c1=O"
assay_readout = "EC50"
observed = "> 12.5 µM"

[[record]]
molecule = "COCCNC(=O)c1cc(-c2ccc(-c3ccccc3)cc2)nc2ccccc12"
assay_readout = "EC50"
observed = "6.28 µM"

[[record]]
molecule = "O=C(NC(=O)c1ccccc1)Nc1ccccc1"
assay_readout = "EC50"
observed = "> 12.5 µM"

[[record]]
molecule = "Cc1ccc(-n2nnc(-c3cccnc3Cl)n2)cc1"
assay_readout = "EC50"
observed = "> 12.5 µM"

[[record]]
molecule = "O=C(Nc1ccc2c(c1)OCO2)c1ccc2c(c1)OCO2"
assay_readout = "EC50"
observed = "5.17 µM"


response.value for Cc1cc(NC(=O)C2CCCC2)nc2c1c(=O)oc1ccccc12 (field: EC50) = > 12.5 µM

response.value for Cc1ccc(S(=O)(=O)Nc2ccccc2C(=O)Nc2nc(-c3ccc(F)cc3)cs2)cc1 (field: EC50) = 9.9 µM

response.value for COC(=O)[C@]12CCCCC=C1N(Cc1cccc3ccccc13)C(=O)[C@H](CC(=O)NCc1ccc(OC)c(OC)c1)C2 (field: EC50) = 10.7 µM

response.value for COCCCn1c(C(=O)Nc2ccc3c(c2)OCO3)cc2c(=O)n3cccc(C)c3nc21 (field: EC50) = > 12.5 µM

response.value for O=C(Nc1ccc(C(=O)O)cc1)/C(=C\C=C\c1ccccc1)NC(=O)c1ccccc1Cl (field: EC50) = 3.5 µM

response.value for O=C(Nc1ccc(Br)cc1F)c1ccc2c(c1)OCCO2 (field: EC50) = 12.5 µM

response.value for O=C(NCC1CCCO1)c1ccc2c3n(nc2c1)-c1ccccc1CO3 (stereo not drawn) (field: EC50) = 8.3 µM

response.value for COc1cccc(C(=O)Nc2ccc(C3CC3(Cl)Cl)cc2)c1 (stereo not drawn) (field: EC50) = > 12.5 µM

###

Biological target: NB7+Caspase-8
Experiment: compound enhancement of TRAIL-induced cell killing – NB7 cells plus caspase-8, luminescence, panel, dose response (AID 652002)
Details: NB7 neuroblastoma +caspase-8, TRAIL sensitization, luminescence viability, with TRAIL, run 2, single replicate panel EC50
pEC50: −log10 of the molar value.
ASSAY READOUT: pEC50

These solved cases illustrate the format of a correct answer.
[[record]]
substance_smiles = "O=Nc1ccc(NO)c2ccccc12"
observed = 5.18

[[record]]
substance_smiles = "CCOC(=O)c1cnc2c(-c3ccccc3)cnn2c1N"
observed = "< 4.90"

[[record]]
substance_smiles = "Cc1ccc2c(c1)C(=NC1CCCCC1)c1cc3ccccc3nc1-2"
observed = "< 4.90"

[[record]]
substance_smiles = "COc1ccc(-c2cc(C(=O)N/N=C/c3cccnc3)c3ccccc3n2)cc1"
observed = "< 4.90"

[[record]]
substance_smiles = "COc1cccc(N/C=C/C(=O)c2ccc(Cl)cc2)c1"
observed = 4.95

[[record]]
substance_smiles = "Cc1nc2cc(NC(=O)c3ccco3)ccc2n1C"
observed = "< 4.90"

[[record]]
substance_smiles = "COc1ccc(-c2nnc(SCC(=O)c3[nH]c(C)c(C(C)=O)c3C)o2)cc1"
observed = "< 4.90"

[[record]]
substance_smiles = "C(=C\\c1ccco1)/c1nc2ccccc2[nH]1"
observed = "< 4.90"


response.value for CCOc1ccc2nc(NC(=O)c3cccc(-c4cc5ccccc5oc4=O)c3)sc2c1 (field: pEC50) = < 4.90

response.value for Cc1cccc(CC(=O)Nc2cc(C)c3c(=O)oc4ccccc4c3n2)c1 (field: pEC50) = < 4.90

response.value for O=c1cc(-c2ccccc2)nc2cc(-c3ccc(F)cc3)[nH]n12 (field: pEC50) = < 4.90

###

Assay: compound enhancement of TRAIL-induced cell killing – NB7 cells plus caspase-8, luminescence, panel, dose response (AID 652002)
Conditions: NB7 neuroblastoma +caspase-8, no TRAIL, compound-alone cytotoxicity counter-screen, luminescence viability; NB7+Caspase-8; run 1; single replicate panel EC50
ASSAY READOUT: EC50

These solved cases illustrate the format of a correct answer.
[[record]]
substance_smiles = "Cc1cc(NC(=O)c2cncc(Br)c2)ccc1NC(=O)c1cc2ccccc2o1"
assay_readout = "EC50"
observed = "> 12.5 µM"

[[record]]
substance_smiles = "Cc1onc(-c2c(Cl)cccc2Cl)c1C(=O)ONC(=O)c1ccccc1"
assay_readout = "EC50"
observed = "> 12.5 µM"

[[record]]
substance_smiles = "O=C(Oc1c(CN2CCOCC2)cc(Cl)c2cccnc12)c1cccs1"
assay_readout = "EC50"
observed = "> 12.5 µM"

[[record]]
substance_smiles = "CC(C)C[C@H](NC(=O)c1nc[nH]c1C(=O)N[C@@H](CC(C)C)C(=O)OCc1ccccc1)C(=O)OCc1ccccc1"
assay_readout = "EC50"
observed = "> 12.5 µM"


Consider now this further compound.
response.value for C#CC(=O)CC1(CN(Cc2ccccc2)C(=O)OC(C)(C)C)CCCCC1 (field: EC50) = 7.26 µM

###

Target: NB7+Caspase-8
Assay: compound enhancement of TRAIL-induced cell killing – NB7 cells plus caspase-8, luminescence, panel, dose response (AID 652002)
Details: NB7 neuroblastoma +caspase-8, TRAIL sensitization, luminescence viability, with TRAIL, run 1, single replicate panel EC50
pEC50: −log10 of the molar value.
ASSAY READOUT: pEC50

These solved cases illustrate the format of a correct answer.
[[record]]
substance_smiles = "CC1(C)N=C(N)N=C(N)N1c1ccc(CCCCc2ccccc2)cc1"
tested_target = "NB7+Caspase-8"
observed = "> 6.41"

[[record]]
substance_smiles = "COc1ccc(-c2cc(C(=O)OCC(=O)Nc3ccc4c(c3)OCO4)c3ccccc3n2)cc1"
tested_target = "NB7+Caspase-8"
observed = "< 4.90"

[[record]]
substance_smiles = "Cc1nc2cc(NC(=O)Nc3cccc([N+](=O)[O-])c3)ccc2n1C"
tested_target = "NB7+Caspase-8"
observed = "< 4.90"

[[record]]
substance_smiles = "COc1ccc(NS(=O)(=O)c2cccc(C(=O)N/N=C/c3c(F)c(F)c(F)c(F)c3F)c2)cc1"
tested_target = "NB7+Caspase-8"
observed = "< 4.90"

[[record]]
substance_smiles = "COc1ccccc1/C=C/C=N/n1c(-c2cc(-c3ccccc3)n[nH]2)n[nH]c1=S"
tested_target = "NB7+Caspase-8"
observed = "< 4.90"

[[record]]
substance_smiles = "Fc1ccc(-c2cnn3c(-c4ccncc4)ccnc23)cc1"
tested_target = "NB7+Caspase-8"
observed = "< 4.90"

[[record]]
substance_smiles = "COc1ccc(/C(C)=N/Nc2nncc3ccccc23)cc1"
tested_target = "NB7+Caspase-8"
observed = 5.13

[[record]]
substance_smiles = "Cc1cc(-c2ccccc2)nc(Nc2nc3c(C)cccc3c(=O)[nH]2)n1"
tested_target = "NB7+Caspase-8"
observed = "< 4.90"


response.value for CC1(C)N=C(N)N=C(N)N1c1ccc(Oc2ccc(Cl)cc2)c(Cl)c1 (field: pEC50) = 5.88

response.value for CCOc1ccc(NC(=O)Nc2cccs2)cc1 (field: pEC50) = < 4.90
